Species on record: Homo sapiens
MEASUREMENT DESCRIPTION: Selectivity ratio of IC50 for PI3Kalpha to IC50 for mTOR
We begin with a simple list: items and their reported Ratio IC50.
Lab note: record the figure alone, no unit after it.

Here are 5 molecules together with their reported answers.
CHEMICAL SMILES | Ratio IC50
CN(C)C(=O)c1cccc(-c2ccnc3c2c(/C=C2\Oc4cccc(O)c4C2=O)cn3C)c1 | 20.5
Cn1cc(/C=C2\Oc3cccc(O)c3C2=O)c2c(N3C4CCC3COC4)ccnc21 | 9
Cn1cc(/C=C2\Oc3cc(O)cc(O)c3C2=O)c2cccnc21 | 1.7
Cn1cc(/C=C2\Oc3cccc(O)c3C2=O)c2c(N3CCC(C(=O)N4CCOCC4)CC3)ccnc21 | 45
Cn1cc(/C=C2\Oc3cc(O)ccc3C2=O)c2c(-c3ccccc3)ccnc21 | 11

Entry CN(C)C(=O)C1CCN(c2ccnc3c2c(/C=C2\Oc4cccc(O)c4C2=O)cn3C)CC1 : reported Ratio IC50 = ?
46

Entry CN1CCN(c2ccnc3c2c(/C=C2\Oc4cccc(O)c4C2=O)cn3C)CC1 : reported Ratio IC50 = ?
63

----------
MEASUREMENT DESCRIPTION: Half life in mouse microsomes in phase 1 using NADPH as a cofactor
Assay type: ADME, Microsome
We begin with a simple list: items and their reported half-life.

Entry CN1CCN(C(=O)C2CCN(c3ccnc4c3c(/C=C3\Oc5cccc(O)c5C3=O)cn4C)CC2)CC1 : reported half-life = ?
> 30 min

Entry Cn1cc(/C=C2\Oc3cccc(O)c3C2=O)c2c(N3CCC(C(=O)N4CCOCC4)CC3)ccnc21 : reported half-life = ?
> 30 min

Entry Cn1cc(/C=C2\Oc3cc(O)cc(O)c3C2=O)c2c(-c3ccccc3)ccnc21 : reported half-life = ?
20 min

----------
TARGET: Mitogen-activated protein kinase 1 (Homo sapiens, UniProt P28482)
Sequence (P28482 whole entry): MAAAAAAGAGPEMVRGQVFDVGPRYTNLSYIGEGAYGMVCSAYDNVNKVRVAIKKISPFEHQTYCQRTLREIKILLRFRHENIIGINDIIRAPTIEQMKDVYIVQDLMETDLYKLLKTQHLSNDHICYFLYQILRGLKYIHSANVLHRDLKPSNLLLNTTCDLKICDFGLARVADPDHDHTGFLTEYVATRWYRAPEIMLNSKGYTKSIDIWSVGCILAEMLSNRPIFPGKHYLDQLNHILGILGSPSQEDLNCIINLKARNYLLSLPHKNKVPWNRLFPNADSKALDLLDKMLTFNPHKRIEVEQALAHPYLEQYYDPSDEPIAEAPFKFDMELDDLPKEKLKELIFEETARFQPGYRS
REPORTED ENDPOINT: IC50 (µM)
API: value field is a number in µM; no unit string.

For Mitogen-activated protein kinase 1 (Homo sapiens, UniProt P28482), provide IC50 of Cn1cc(/C=C2\Oc3cccc(O)c3C2=O)c2c(-c3ccc(C(=O)NCCO)cc3)ccnc21 please.
0.05

----------
We begin with a simple list: items and their reported half-life.
MEASUREMENT DESCRIPTION: Half life in mouse microsomes in phase 1 using NADPH as a cofactor
Format: ADME, Microsome

CHEMICAL SMILES | half-life
CN(C)C(=O)C1CCN(c2ccnc3c2c(/C=C2\Oc4cccc(O)c4C2=O)cn3C)CC1 | > 30 min
CN1CCN(C(=O)c2ccc(-c3ccnc4c3c(/C=C3\Oc5cccc(O)c5C3=O)cn4C)cc2)CC1 | 28 min
Cn1cc(/C=C2\Oc3cccc(O)c3C2=O)c2c(N3CCC(C(=O)N4CC5CCC(C4)O5)CC3)ccnc21 | > 30 min
Cn1cc(/C=C2\Oc3cccc(O)c3C2=O)c2c(-c3ccc(C(=O)N4CCN(CCO)CC4)cc3)ccnc21 | > 30 min

Pending compound:
Entry Cn1cc(/C=C2\Oc3cccc(O)c3C2=O)c2c(-c3ccc(C(=O)N4CCOCC4)cc3)ccnc21 : reported half-life = ?
> 30 min

----------
TARGET: Phosphatidylinositol 4,5-bisphosphate 3-kinase catalytic subunit alpha isoform (Homo sapiens, UniProt P42336)
Sequence (P42336 whole entry, canonical isoform): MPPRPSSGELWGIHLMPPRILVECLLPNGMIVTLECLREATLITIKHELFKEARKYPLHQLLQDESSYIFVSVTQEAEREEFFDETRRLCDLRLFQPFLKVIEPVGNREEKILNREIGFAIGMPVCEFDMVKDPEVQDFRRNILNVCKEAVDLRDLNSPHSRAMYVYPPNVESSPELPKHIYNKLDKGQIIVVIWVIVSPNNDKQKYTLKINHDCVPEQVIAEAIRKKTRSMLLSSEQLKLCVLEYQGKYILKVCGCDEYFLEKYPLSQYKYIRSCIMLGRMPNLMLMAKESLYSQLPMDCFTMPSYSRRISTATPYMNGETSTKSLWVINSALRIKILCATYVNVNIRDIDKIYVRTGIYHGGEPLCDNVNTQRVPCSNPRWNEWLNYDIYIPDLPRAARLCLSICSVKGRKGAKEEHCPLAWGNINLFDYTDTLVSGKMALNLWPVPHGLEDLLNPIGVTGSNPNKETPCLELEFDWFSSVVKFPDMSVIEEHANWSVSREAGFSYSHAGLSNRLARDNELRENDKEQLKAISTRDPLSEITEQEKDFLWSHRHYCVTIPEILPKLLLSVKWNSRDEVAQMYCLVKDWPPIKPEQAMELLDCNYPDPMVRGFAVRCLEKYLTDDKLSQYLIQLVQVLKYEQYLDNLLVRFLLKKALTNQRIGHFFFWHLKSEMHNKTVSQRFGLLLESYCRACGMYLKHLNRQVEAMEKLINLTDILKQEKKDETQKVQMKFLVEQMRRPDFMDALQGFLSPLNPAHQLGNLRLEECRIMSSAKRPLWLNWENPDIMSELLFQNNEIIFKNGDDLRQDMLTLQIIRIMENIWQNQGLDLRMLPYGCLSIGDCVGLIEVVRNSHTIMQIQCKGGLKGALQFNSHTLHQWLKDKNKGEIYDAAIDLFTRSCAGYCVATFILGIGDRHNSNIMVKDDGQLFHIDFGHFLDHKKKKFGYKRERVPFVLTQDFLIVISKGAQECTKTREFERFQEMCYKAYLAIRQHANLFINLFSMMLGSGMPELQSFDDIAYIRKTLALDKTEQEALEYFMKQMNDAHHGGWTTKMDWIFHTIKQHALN
MEASUREMENT DESCRIPTION: Inhibition of PI3Kalpha
pIC50: −log10 of the molar value.
Rule: pIC50 of 7 or more gives condition met; anything lower gives condition not met.

CHEMICAL SMILES | CATEGORY LABEL
Cn1cc(/C=C2\Oc3cccc(O)c3C2=O)c2c(N3CCC(C(=O)N4CCN(CCO)CC4)CC3)ccnc21 | condition met
Cn1cc(/C=C2\Oc3cc(O)cc(O)c3C2=O)c2c(-c3ccccc3)cccc21 | condition not met
Cn1cc(/C=C2\Oc3cccc(O)c3C2=O)c2c(N3CCC(C(=O)N4CC5CCC(C4)O5)CC3)ccnc21 | condition met
CN(C)C(=O)C1CCN(c2ccnc3c2c(/C=C2\Oc4cccc(O)c4C2=O)cn3C)CC1 | condition met
CCn1cc(/C=C2\Oc3cccc(O)c3C2=O)c2c(-c3ccc(C(=O)N4CCN(CCO)CC4)cc3)ccnc21 | condition not met

Now turn to the next compound.
Check this compound for pIC50 at or above 7: CN1CCN(c2ccnc3c2c(/C=C2\Oc4cc(O)cc(O)c4C2=O)cn3C)CC1
condition met
